Hey, just so you know, these numbers are from patent US20240246979A1.

biological target: cGAS (Homo sapiens, UniProt Q8N884); experiment: Cellular assay to measure cGAS activity (IFNb AlphaLISA in THP1 cells stimulated by RDG-Adenovirus-GFP); type: cell-based; set-up: host or cells: THP1 cells differentiated with PMA and stimulated with RDG-Adenovirus-GFP; conditions: PMA-differentiated THP1 cells, RDG-Adenovirus-GFP at 1000 MOI; inhibition of IFNb production as marker for cGAS activity
Sequence (Q8N884 whole entry): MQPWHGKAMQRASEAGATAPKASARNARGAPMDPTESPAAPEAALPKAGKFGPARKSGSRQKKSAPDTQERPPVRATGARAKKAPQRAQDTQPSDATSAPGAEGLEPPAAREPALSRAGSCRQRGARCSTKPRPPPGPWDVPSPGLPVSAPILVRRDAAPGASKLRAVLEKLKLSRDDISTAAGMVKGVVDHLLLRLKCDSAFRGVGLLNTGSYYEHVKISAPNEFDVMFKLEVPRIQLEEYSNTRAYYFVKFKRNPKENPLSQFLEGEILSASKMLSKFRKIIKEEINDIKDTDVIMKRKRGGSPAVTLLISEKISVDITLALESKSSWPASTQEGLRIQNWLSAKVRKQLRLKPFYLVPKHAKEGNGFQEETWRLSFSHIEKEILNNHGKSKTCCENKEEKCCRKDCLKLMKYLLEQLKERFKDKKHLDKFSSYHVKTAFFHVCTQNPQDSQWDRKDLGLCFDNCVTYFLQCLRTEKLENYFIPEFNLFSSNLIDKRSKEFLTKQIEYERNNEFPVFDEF
PROPERTY_MEASURED: IC50 (µM)

C[C@@H]1C(=O)NCCc2[nH]c3c(Cl)c(Cl)cc(OCC#N)c3c21 (single isomer, unassigned) [Example 16B] :: 1.01
C[C@H]1C(=O)NCCc2[nH]c3c(Cl)c(Cl)cc(NCCCO)c3c21 (single isomer, unassigned) [Example 53] :: 0.471
CC1C(=O)NCCc2[nH]c3c(Cl)c(Cl)cc(NCc4cocn4)c3c21 (stereo not shown) [Example 57] :: 0.558
C[C@@H]1C(=O)NCCc2[nH]c3c(Cl)c(Cl)cc(OCC(N)=O)c3c21 (single isomer, unassigned) [Example 17A] :: 0.856
Cn1c2c(c3c(OCC#N)cc(Cl)c(Cl)c31)CC(=O)NC[C@H]2CCO (single isomer, unassigned) [Example 125] :: 0.272
CC1C(=O)NCCc2[nH]c3c(Cl)c(Cl)cc(NC(=O)C4CCO4)c3c21 (stereo not shown) [Example 44] :: 2.79

A = COCC[C@@H]1CNC(=O)Cc2c1[nH]c1c(Cl)c(Cl)cc(-c3cnn(C)n3)c21 (single isomer, unassigned) [Example 167]
B = Cn1ncc(-c2cc(Cl)c(F)c3[nH]c4c(c23)CC(=O)NCC4)n1 [Example 1]
Larger number for IC50: A , or B ? // respond with label for picked entry
B
(B: 2.64 µM, A: 0.624 µM)

I = C[C@H]1C(=O)NCC(C)(C)c2c1c1c(NC(=O)CO)cc(Cl)c(Cl)c1n2C (single isomer, unassigned) [Example 134]
II = C[C@@H]1C(=O)NCCc2[nH]c3c(Cl)c(Cl)cc(OCCCO)c3c21 (single isomer, unassigned) [Example 14B]
From the items above, decide which of I and II has the lower IC50 reading. // respond with label for picked entry
I

A = CC1C(=O)NCCc2[nH]c3c(Cl)c(Cl)cc(NCc4cocn4)c3c21 (stereo in doubt) [Example 58]
B = CCOC(=O)CC1CNC(=O)Cc2c1[nH]c1c(Cl)c(Cl)cc(-c3cnn(C)n3)c21 (racemic) [Example 4]
From the items above, decide which of A and B has the lower IC50 reading. // respond with label for picked entry
A
(A: 0.577 µM, B: 3.57 µM)

1 = C[C@H](O)C(=O)Nc1cc(Cl)c(Cl)c2[nH]c3c(c12)[C@@H](C)C(=O)NCC3(C)C (single isomer, unassigned) [Example 182]
2 = O=C1Cc2c([nH]c3c(Cl)c(Cl)cc(OCCCO)c23)CCN1 [Example 23]
3 = C[C@H]1C(=O)NCCc2[nH]c3c(Cl)c(Cl)cc(NCC(F)(F)CO)c3c21 (single isomer, unassigned) [Example 68]
Arrange the 3 compounds from largest to smallest IC50. Reply format: the labels, ordered as requested.
2, 1, 3

1 = CC1C(=O)NCCc2[nH]c3c(Cl)c(Cl)cc(OC4CCOC4)c3c21 (mixture of isomers) [Example 86]
2 = CCOc1cc(Cl)c(Cl)c2[nH]c3c(c12)[C@H](C)C(=O)NCC3 (single isomer, unassigned) [Example 15A]
From the items above, decide which of 1 and 2 has the lower IC50 reading. // respond with label for picked entry
2
(2: 0.793 µM, 1: 3.47 µM)

A = NC(=O)C(=O)Nc1cc(Cl)c(Cl)c2[nH]c3c(c12)CC(=O)NCC3 [Example 32]
B = C[C@H]1CNC(=O)[C@H](C)c2c1[nH]c1c(Cl)c(Cl)cc(NC(=O)CO)c21 (racemic) [Example 158]
Larger number for IC50: A , or B ? // respond with label for picked entry
A
(A: 1.4 µM, B: 0.341 µM)

a = C[C@H](O)COc1cc(Cl)c(Cl)c2[nH]c3c(c12)[C@H](C)C(=O)NCC3 (single isomer, unassigned) [Example 84]
b = C[C@@H]1C(=O)NCCc2c1c1c(NC(=O)CO)cc(Cl)c(Cl)c1n2C (single isomer, unassigned) [Example 92]
c = C[C@@H]1C(=O)NCCc2[nH]c3c(Cl)c(Cl)cc(OCC(F)(F)CO)c3c21 (single isomer, unassigned) [Example 73]
d = COC(=O)CC1CNC(=O)Cc2c1[nH]c1c(Cl)c(Cl)cc(CC#N)c21 (stereo not shown) [Example 176]
Arrange the 4 compounds from largest to smallest IC50. Reply format: the labels, ordered as requested.
d, a, c, b

====

target: cGAS (Homo sapiens); assay: In vitro inhibition assay of cGAS activity (cGAMP production, RapidFire mass spectrometry); assay type: biochemical; set-up: Insert cDNA encoding full-length of human cGAS; His6; made in house; host or cells: E. coli BL21(DE3); conditions: 10 nM recombinant human cGAS, 60 nM 75-bp dsDNA, 50 μM ATP, 50 μM GTP, 3 hrs
pIC50: −log10 of the molar value.
PROPERTY_MEASURED: pIC50

Previously resolved entries follow.
CC1C(=O)NCCc2[nH]c3c(Cl)c(Cl)cc(NCc4cocn4)c3c21 (stereo not shown) [Example 57] :: 7.38
COCCOc1cc(Cl)c(Cl)c2c1c1c(n2C)CCNC(=O)C1C (stereo not shown) :: 7.74

I = C[C@H]1CNC(=O)[C@H](C)c2c1[nH]c1c(Cl)c(Cl)cc(NC(=O)CO)c21 (racemic)
II = Cn1ncc(-c2cc(Cl)c(Cl)c3c2c2c(n3C)C(CCO)CNC(=O)C2)n1 (stereo not shown)
From the items above, decide which of I and II has the lower pIC50 reading. // respond with label for picked entry
II
(II: 7.46, I: 7.71)

====

Biological target: UniProt Q8N884
Test: In vitro inhibition assay of cGAS activity (cGAMP production, RapidFire mass spectrometry)
Assay type: biochemical
Set-up: Insert cDNA encoding full-length of human cGAS; His6; made in house; host or cells: E. coli BL21(DE3)
Details: 10 nM recombinant human cGAS, 60 nM 75-bp dsDNA, 50 μM ATP, 50 μM GTP, 3 hrs
Protocol: Expression and Purification of Recombinant cGAS Protein: Insert cDNA encoding full-length of human cGAS into a modified bacterial expression vector containing an in-frame His6-tag. Induce the E. coli strain BL21(DE3) harboring the plasmid with 1 mM IPTG (Isopropyl β-D-1-thiogalactopyranoside) at 18° C. overnight. […]
pIC50: −log10 of the molar value.
PROPERTY_MEASURED: pIC50

Previously resolved entries follow.
NC(=O)COc1cc(Cl)c(Cl)c2[nH]c3c(c12)CC(=O)NCC3 :: 6.88
CC1C(=O)NCCc2[nH]c3c(Cl)c(Cl)cc(N[C@H]4CCOC4)c3c21 (mixture of isomers) :: 7.46
CC1C(=O)NCCc2c1c1c(NCCO)cc(Cl)c(Cl)c1n2C (single isomer, unassigned) :: 8.08

1 = COCC[C@H]1CNC(=O)[C@@H](C)c2c1[nH]c1c(Cl)c(Cl)cc(NCCO)c21 (single isomer, unassigned) [Example 173]
2 = C[C@H]1C(=O)NCCc2[nH]c3c(Cl)c(Cl)cc(NCC(F)(F)CO)c3c21 (single isomer, unassigned) [Example 68]
Larger number for pIC50: 1 , or 2 ? // respond with label for picked entry
2

1 = CCOC(=O)CC1CNC(=O)Cc2c1[nH]c1c(Cl)c(Cl)cc(-c3cnn(C)n3)c21 (racemic)
2 = CCC1CNC(=O)Cc2c1[nH]c1c(Cl)c(Cl)cc(-c3cnn(C)n3)c21 (stereo not drawn)
Larger number for pIC50: 1 , or 2 ? // respond with label for picked entry
1

a = NC(=O)C(=O)Nc1cc(Cl)c(Cl)c2[nH]c3c(c12)CC(=O)NCC3
b = O=C1Cc2c([nH]c3c(Cl)c(Cl)cc(-c4cnco4)c23)CCN1
Larger number for pIC50: a , or b ? // respond with label for picked entry
a

====

molecular target: cGAS (Homo sapiens); assay: In vitro inhibition assay of cGAS activity (cGAMP production, RapidFire mass spectrometry); format: biochemical; design: Insert cDNA encoding full-length of human cGAS; His6; made in house; host or cells: E. coli BL21(DE3); details: 10 nM recombinant human cGAS, 60 nM 75-bp dsDNA, 50 μM ATP, 50 μM GTP, 3 hrs
A collection of molecules and their measured pIC50
Conceptually, pIC50 converts a concentration in mol/L into minus its log10.

COCC(=O)Nc1cc(Cl)c(Cl)c2[nH]c3c(c12)[C@@H](C)C(=O)NCC3 (single isomer, unassigned) [Example 40] :: 7.56
CC(F)(F)C[C@@H]1CNC(=O)Cc2c1[nH]c1c(Cl)c(Cl)cc(CC#N)c21 (single isomer, unassigned) [Example 138] :: 8.10

Now examine the next entry.
Given COCCNc1cc(Cl)c(Cl)c2[nH]c3c(c12)C(C)C(=O)NCC3 (racemic) , state its recorded pIC50.
7.65
